Assay: in vivo
Conditions: both, cynomolgus monkey, iv, 5 mg/kg
metric: Vd (L/kg)
I only need the number, in L/kg, no unit after it.

So, CC(C)(C)[C@H](NC(=O)C(F)(F)F)C(=O)N1CC2(C[C@H]1C(=O)N[C@H](C#N)C[C@@H]1CCNC1=O)SCCS2 [compound 9, simnotrelvir] ? Its Vd was 1.5

* * *

Test system: CYP3A4/5
Assay: in vitro
Settings: human, microsomes
metric: pIC50
Entry type: numeric. Quantity: pIC50, the -log10 of concentration in molar units.

So, CC(C)(C)[C@H](NC(=O)C(F)(F)F)C(=O)N1CC2(C[C@H]1C(=O)N[C@H](C#N)C[C@@H]1CCNC1=O)SCCS2 ? Its pIC50 was 4.52
